# Test system: G-292-Clone-A141B1 (Osteosarcoma)
# experiment_notes: Bliss excess, mean over the matrix (fraction); higher = more synergy
quantity_measured: Bliss excess

{"columns": ["compound", "study_target", "observed_measurement"],
 "data": [
  ["CS(=O)(=O)CCNCc1ccc(-c2ccc3ncnc(Nc4ccc(OCc5cccc(F)c5)c(Cl)c4)c3c2)o1 [Lapatinib] + NC1(c2ccc(-c3nc4ccn5c(=O)[nH]nc5c4cc3-c3ccccc3)cc2)CCC1 [MK-2206] (first compound max 10 µM, 7x7, partner max 10 µM)", "G-292-Clone-A141B1 (Osteosarcoma)", -0.0004],
  ["COc1nnc2ccc(N3CCC(c4ccc(OCCN5CCN(C)C(=O)[C@H]5C)cc4)CC3)nn12 [AZD5153] + CCN(CCO)CCCOc1ccc2c(Nc3cc(CC(=O)Nc4cccc(F)c4)[nH]n3)ncnc2c1 [AZD2811] (first compound max 1 µM, 7x7, partner max 1 µM)", "G-292-Clone-A141B1 (Osteosarcoma)", -0.0263],
  ["COc1nnc2ccc(N3CCC(c4ccc(OCCN5CCN(C)C(=O)[C@H]5C)cc4)CC3)nn12 [AZD5153] + Cn1cnc2c(F)c(Nc3ccc(Br)cc3Cl)c(C(=O)NOCCO)cc21 [Selumetinib] (first compound max 1 µM, 7x7, partner max 10 µM)", "G-292-Clone-A141B1 (Osteosarcoma)", -0.0388],
  ["C[C@@H](c1ccc2nccn2c1)n1nnc2ncc(-c3cnn(C)c3)nc21 [Savolitinib] + Cc1c2c(nn1C)CSCc1cc(n(C)n1)CSc1cc(c3ccccc3c1)OCCCc1c(C(=O)O)n(C)c3c-2c(Cl)ccc13 [AZD5991] (first compound max 1 µM, 7x7, partner max 1 µM)", "G-292-Clone-A141B1 (Osteosarcoma)", -0.0381]
]}

* * *

# Test system: KARPAS-620 (Plasma Cell Myeloma)
# experiment_notes: combination Emax (second highest fraction inhibited in the dose matrix, 72 h); higher = more inhibition; extreme values may be limits of the assay

{"columns": ["molecule", "combination Emax"],
 "data": [
  ["C[C@@H](c1ccc2nccn2c1)n1nnc2ncc(-c3cnn(C)c3)nc21 [Savolitinib] + Cc1c2c(nn1C)CSCc1cc(n(C)n1)CSc1cc(c3ccccc3c1)OCCCc1c(C(=O)O)n(C)c3c-2c(Cl)ccc13 [AZD5991] (first compound max 1 µM, 7x7, partner max 1 µM)", 0.997],
  ["COc1cccc2c1C(=O)c1c(O)c3c(c(O)c1C2=O)C[C@@](O)(C(=O)CO)C[C@@H]3O[C@H]1C[C@H](N)[C@H](O)[C@H](C)O1 [Doxorubicin] + Cc1cc2ncnn2cc1Nc1ncc2c(n1)n(C1CCOCC1)c(=O)n2C [AZD7648] (first compound max 1 µM, 7x7, partner max 10 µM)", 0.681],
  ["CC1(C)CCC(CN2CCN(c3ccc(C(=O)NS(=O)(=O)c4ccc(NCC5CCOCC5)c([N+](=O)[O-])c4)c(Oc4cnc5[nH]ccc5c4)c3)CC2)=C(c2ccc(Cl)cc2)C1 [Venetoclax] + COc1cc(Nc2ncc3c(n2)-c2ccc(Cl)cc2C(c2c(F)cccc2OC)=NC3)ccc1C(=O)O [Alisertib] (first compound max 1 µM, 7x7, partner max 10 µM)", 1]
]}

* * *

# Tested on: HCC2157 (Breast Carcinoma)
# experiment_notes: combination Emax (second highest fraction inhibited in the dose matrix, 72 h); higher = more inhibition; extreme values may be limits of the assay
quantity_measured: combination Emax

{"columns": ["compound", "quantity_measured", "observed_measurement"],
 "data": [
  ["Cc1cc2ncnn2cc1Nc1ncc2c(n1)n(C1CCOCC1)c(=O)n2C [AZD7648] + C=CCn1c(=O)c2cnc(Nc3ccc(N4CCN(C)CC4)cc3)nc2n1-c1cccc(C(C)(C)O)n1 [AZD1775] (first compound max 10 µM, partner max 1 µM)", "combination Emax", 0.899],
  ["Cc1c2c(nn1C)CSCc1cc(n(C)n1)CSc1cc(c3ccccc3c1)OCCCc1c(C(=O)O)n(C)c3c-2c(Cl)ccc13 [AZD5991] + C[C@@H]1COCCN1C2=NC(=NC(=C2)C3(CC3)[S@](=N)(=O)C)C4=C5C=CNC5=NC=C4 [AZD6738] (first compound max 1 µM, 7x7, partner max 10 µM)", "combination Emax", 0.998],
  ["CN(CCO)CC[C@H](CSc1ccccc1)Nc1ccc(S(=O)(=O)NC(=O)c2ccc(N3CCC([C@@H](O)c4ccccc4-c4ccc(Cl)cc4)CC3)cc2)cc1S(=O)(=O)C(F)(F)F [AZD4320] + Cn1cnc2c(F)c(Nc3ccc(Br)cc3Cl)c(C(=O)NOCCO)cc21 [Selumetinib] (first compound max 1 µM, 7x7, partner max 3 µM)", "combination Emax", 0.923],
  ["C=CCn1c(=O)c2cnc(Nc3ccc(N4CCN(C)CC4)cc3)nc2n1-c1cccc(C(C)(C)O)n1 [AZD1775] + O=C(c1cc(Cc2n[nH]c(=O)c3ccccc23)ccc1F)N1CCN(C(=O)C2CC2)CC1 [Olaparib] (first compound max 1 µM, partner max 10 µM)", "combination Emax", 0.892]
]}

* * *

# Tested on: KATOIII (Gastric Carcinoma)
# experiment_notes: Bliss excess, mean over the matrix (fraction); higher = more synergy
quantity_measured: Bliss excess

{"columns": ["compound", "study_target", "observed_measurement"],
 "data": [
  ["CN(CCO)CC[C@H](CSc1ccccc1)Nc1ccc(S(=O)(=O)NC(=O)c2ccc(N3CCC([C@@H](O)c4ccccc4-c4ccc(Cl)cc4)CC3)cc2)cc1S(=O)(=O)C(F)(F)F [AZD4320] + CN(C)CCCOc1ccc(-c2ccc3ncc4c(c3c2)n(C2CCOCC2)c(=O)n4C)cn1 [AZD0156] (first compound max 1 µM, 7x7, partner max 1 µM)", "KATOIII (Gastric Carcinoma)", -0.034],
  ["C[C@@H]1COCCN1c1cc(C2([S@](C)(=N)=O)CC2)nc(-c2ccnc3[nH]ccc23)n1 [AZD6738] + O=C(c1cc(Cc2n[nH]c(=O)c3ccccc23)ccc1F)N1CCN(C(=O)C2CC2)CC1 [Olaparib] (first compound max 10 µM, 7x7, partner max 10 µM)", "KATOIII (Gastric Carcinoma)", -0.0286],
  ["Cc1c2c(nn1C)CSCc1cc(n(C)n1)CSc1cc(c3ccccc3c1)OCCCc1c(C(=O)O)n(C)c3c-2c(Cl)ccc13 [AZD5991] + C=CCn1c(=O)c2cnc(Nc3ccc(N4CCN(C)CC4)cc3)nc2n1-c1cccc(C(C)(C)O)n1 [AZD1775] (first compound max 1 µM, partner max 1 µM)", "KATOIII (Gastric Carcinoma)", -0.029],
  ["CCN(CCO)CCCOc1ccc2c(Nc3cc(CC(=O)Nc4cccc(F)c4)[nH]n3)ncnc2c1 [AZD2811] + C[C@@H]1COCCN1C2=NC(=NC(=C2)C3(CC3)[S@](=N)(=O)C)C4=C5C=CNC5=NC=C4 [AZD6738] (first compound max 1 µM, 7x7, partner max 10 µM)", "KATOIII (Gastric Carcinoma)", -0.0477]
]}

* * *

# Tested on: NALM-6 (B-Lymphoblastic Leukemia)
# experiment_notes: combination Emax (second highest fraction inhibited in the dose matrix, 72 h); higher = more inhibition; extreme values may be limits of the assay

{"columns": ["molecule", "combination Emax"],
 "data": [
  ["O=C(c1cc(Cc2n[nH]c(=O)c3ccccc23)ccc1F)N1CCN(C(=O)C2CC2)CC1 [Olaparib] + Cc1c2c(nn1C)CSCc1cc(n(C)n1)CSc1cc(c3ccccc3c1)OCCCc1c(C(=O)O)n(C)c3c-2c(Cl)ccc13 [AZD5991] (first compound max 10 µM, 7x7, partner max 1 µM)", 0.74],
  ["COc1nnc2ccc(N3CCC(c4ccc(OCCN5CCN(C)C(=O)[C@H]5C)cc4)CC3)nn12 [AZD5153] + C=CCn1c(=O)c2cnc(Nc3ccc(N4CCN(C)CC4)cc3)nc2n1-c1cccc(C(C)(C)O)n1 [AZD1775] (first compound max 1 µM, partner max 1 µM)", 0.951]
]}

* * *

# Tested on: ES7 (Ewing's Sarcoma)
# experiment_notes: Bliss excess, mean over the matrix (fraction); higher = more synergy
quantity_measured: Bliss excess

{"columns": ["compound", "quantity_measured", "observed_measurement"],
 "data": [
  ["Cc1c2c(nn1C)CSCc1cc(n(C)n1)CSc1cc(c3ccccc3c1)OCCCc1c(C(=O)O)n(C)c3c-2c(Cl)ccc13 [AZD5991] + CS(=O)(=O)CCNCc1ccc(-c2ccc3ncnc(Nc4ccc(OCc5cccc(F)c5)c(Cl)c4)c3c2)o1 [Lapatinib] (first compound max 1 µM, 7x7, partner max 10 µM)", "Bliss excess", 0.0148],
  ["CC1(C)CCC(CN2CCN(c3ccc(C(=O)NS(=O)(=O)c4ccc(NCC5CCOCC5)c([N+](=O)[O-])c4)c(Oc4cnc5[nH]ccc5c4)c3)CC2)=C(c2ccc(Cl)cc2)C1 [Venetoclax] + CCN(CCO)CCCOc1ccc2c(Nc3cc(CC(=O)Nc4cccc(F)c4)[nH]n3)ncnc2c1 [AZD2811] (first compound max 1 µM, 7x7, partner max 1 µM)", "Bliss excess", 0.0074],
  ["C[C@@H](Nc1cc(F)cc(F)c1)c1cc(C(=O)N(C)C)cc2c(=O)cc(N3CCOCC3)oc12 [AZD8186] + C1CN(CCC1(C(=O)N[C@@H](CCO)C2=CC=C(C=C2)Cl)N)C3=NC=NC4=C3C=CN4 [AZD5363] (first compound max 10 µM, 7x7, partner max 10 µM)", "Bliss excess", 0.0043]
]}
